# assaySummary: Cytotoxicity against human MES-SA/Dx5 cells after 96 hrs by MTT assay
# Format: functional, cell-based
# measurementContext: MES-SA/Dx5, 96 h
pIC50: −log10 of the molar value.
observationType: pIC50

[[record]]
compound = "CC(C)=CC(=O)OC(C)(C)[C@@H]1Cc2cc3ccc(=O)oc3cc2O1 [(-)-PRANTSCHIMGIN]"
observedmeasurement = 5.51


----------
# Test system: K562
# assaySummary: Cytotoxicity against human K562 cells after 96 hrs by MTT assay
# Format: functional, cell-based
# measurementContext: K562, 96 h
observationType: IC50 (µM)

[[record]]
molecule = "O=c1ccc2cc3ccoc3cc2o1 [PSORALEN]"
targetofassay = "K562"
observationtype = "IC50"
unitspec = "µM"
observedmeasurement = 131


----------
# Test system: Radical scavenging activity
# assaySummary: Antioxidant activity assessed as DPPH free radical scavenging activity after 30 mins by spectrophotometric analysis
# Type: functional
# measurementContext: read-out: IC50
observationType: IC50 (µM)

[[record]]
molecule = "Cc1cc(C(C)(C)C)c(O)c(C(C)(C)C)c1 [BUTYLATED HYDROXYTOLUENE]"
targetofassay = "Radical scavenging activity"
observationtype = "IC50"
observedmeasurement = 9.02


----------
Listing of entries alongside the reported pIC50.
# targetOfAssay: Acetylcholinesterase (Homo sapiens, UniProt P22303)
# Sequence (P22303 whole entry): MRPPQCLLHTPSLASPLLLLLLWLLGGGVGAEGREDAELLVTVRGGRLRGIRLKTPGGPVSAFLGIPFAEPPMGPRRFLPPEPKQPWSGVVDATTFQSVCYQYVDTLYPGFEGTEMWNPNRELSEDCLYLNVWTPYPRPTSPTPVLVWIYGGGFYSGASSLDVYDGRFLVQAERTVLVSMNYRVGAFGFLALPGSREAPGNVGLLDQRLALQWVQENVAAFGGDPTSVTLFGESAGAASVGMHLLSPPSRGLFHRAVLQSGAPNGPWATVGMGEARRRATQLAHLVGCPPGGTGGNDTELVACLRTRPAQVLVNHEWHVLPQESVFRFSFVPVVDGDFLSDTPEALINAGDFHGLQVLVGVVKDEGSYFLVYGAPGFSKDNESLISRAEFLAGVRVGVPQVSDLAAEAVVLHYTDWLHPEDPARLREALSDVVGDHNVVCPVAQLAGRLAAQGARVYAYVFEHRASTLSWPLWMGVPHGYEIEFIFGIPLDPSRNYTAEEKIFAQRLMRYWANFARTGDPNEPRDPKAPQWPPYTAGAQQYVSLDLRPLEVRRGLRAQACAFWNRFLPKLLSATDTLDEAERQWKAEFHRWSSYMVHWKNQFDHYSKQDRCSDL
pIC50: −log10 of the molar value.
observationType: pIC50

[[record]]
compound = "C/C=C(\\C)C(=O)OC(C)(C)[C@@H]1Cc2cc3ccc(=O)oc3cc2O1"
censoringoperator = "<"
observedmeasurement = 4.00

[[record]]
compound = "CC(C)=CC(=O)OC(C)(C)[C@@H]1Cc2cc3ccc(=O)oc3cc2O1 [(-)-PRANTSCHIMGIN]"
censoringoperator = "<"
observedmeasurement = 4.00

[[record]]
compound = "O=c1ccc2cc3ccoc3cc2o1 [PSORALEN]"
censoringoperator = "="
observedmeasurement = 5.19

[[record]]
compound = "COc1c2occc2cc2ccc(=O)oc12 [METHOXSALEN]"
censoringoperator = "="
observedmeasurement = 6.12

[[record]]
compound = "O=C(O)/C=C/c1ccc(O)c(O)c1 [CAFFEIC ACID]"
censoringoperator = "<"
observedmeasurement = 4.00

